Ref: the RNAGym collection of RNA variant scans (doi:10.1021/acssynbio.7b00057)

B1: Pistol ribozyme (parent)
chain: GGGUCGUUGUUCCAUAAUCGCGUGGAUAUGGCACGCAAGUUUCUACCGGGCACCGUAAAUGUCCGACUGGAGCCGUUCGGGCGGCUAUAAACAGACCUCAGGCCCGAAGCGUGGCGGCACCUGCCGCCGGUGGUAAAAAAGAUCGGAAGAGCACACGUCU

Variants of: B1
Test: aptazyme ON/OFF ratio, guanine; higher = stronger switching; co-transcriptional cleavage with and without guanine
Parameter: aptazyme ON/OFF ratio
Answers are plain numbers.

q: Param item = U7G U8C U10C U11A C12G ; retrieve measured aptazyme ON/OFF ratio.
a: 1.25

Please supply aptazyme ON/OFF ratio for each of the following items, keeping them in order.
1. U7C U8G G9A U10G U11A C12G C13A
2. U7C U8C G9U C12U C13U
3. U7C U8A G9A U10A U11G C13A
4. U7G U8A G9U U10G U11C C12A C13G
5. U8C G9A U10G C12A C13U
6. U7C G9A U10A U11C C12U C13G

a:
1.26
1.3
1.16
1.05
1.28
1.05

For the 6 variants below, give their aptazyme ON/OFF ratio values.
1. U7G U8A G9U U10G U11A C12U
2. U8G G9A U10A C12A
3. U7A U8A G9U U10A U11C C12U C13U
4. G9C U10A U11G C12U C13A
5. U7C U8G G9U U10C U11A C12A C13G
6. U8C G9A U11A

a:
[1.04, 1.32, 1.21, 1.08, 1.15, 1.25]
